Measured pKi accompanies every entry in the list below.
Biological target: UniProt P81908
Sequence (P81908 whole entry): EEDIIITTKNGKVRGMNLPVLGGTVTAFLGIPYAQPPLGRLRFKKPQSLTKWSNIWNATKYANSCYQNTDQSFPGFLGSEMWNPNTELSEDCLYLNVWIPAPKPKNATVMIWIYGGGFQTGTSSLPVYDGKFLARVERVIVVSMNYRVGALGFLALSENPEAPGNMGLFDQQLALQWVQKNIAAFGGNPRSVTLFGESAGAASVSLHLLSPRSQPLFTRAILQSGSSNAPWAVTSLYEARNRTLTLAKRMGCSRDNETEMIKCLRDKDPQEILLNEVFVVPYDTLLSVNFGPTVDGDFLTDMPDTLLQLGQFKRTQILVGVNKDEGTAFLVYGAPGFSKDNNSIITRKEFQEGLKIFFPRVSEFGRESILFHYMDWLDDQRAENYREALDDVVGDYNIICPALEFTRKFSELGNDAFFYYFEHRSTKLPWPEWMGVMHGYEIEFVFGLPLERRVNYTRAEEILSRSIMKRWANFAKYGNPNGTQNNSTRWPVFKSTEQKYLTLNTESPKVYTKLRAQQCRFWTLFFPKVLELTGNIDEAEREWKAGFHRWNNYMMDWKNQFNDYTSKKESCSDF
Test: Competitive inhibition of equine serum BChE using butyrylthiocholine iodide as substrate preincubated for 20 mins followed by substrate addition measured every 1 min for 30 mins by Dixon plot method
Notebook: values listed as pKi are -log10 of the concentration (mol/L).

For orientation, consider the following solved cases.
INSERT INTO assay_data (smi, recorded_endpoint, reported_result) VALUES
  ('C[C@@H](N)[C@@H]1CC[C@]2(C(=O)OCc3ccccc3)CC[C@]3(C)[C@H](CC[C@@H]4[C@@]5(C)CC[C@H](O)C(C)(C)[C@@H]5CC[C@]43C)[C@@H]12', 'pKi', 7.15),
  ('COC(=O)[C@]12CC[C@@H]([C@@H](C)N)[C@@H]1[C@H]1CC[C@@H]3[C@@]4(C)CC[C@H](OC(C)=O)C(C)(C)[C@@H]4CC[C@@]3(C)[C@]1(C)CC2', 'pKi', 7.05),
  ('CC(=O)OC[C@]12CC[C@@H]([C@@H](C)N)[C@@H]1[C@H]1CC[C@@H]3[C@@]4(C)CC[C@H](OC(C)=O)C(C)(C)[C@@H]4CC[C@@]3(C)[C@]1(C)CC2', 'pKi', 7.22);

Prompt: Entry `COC(=O)[C@]12CC[C@@H]([C@H](C)N)[C@@H]1[C@H]1CC[C@@H]3[C@@]4(C)CC[C@H](OC(C)=O)C(C)(C)[C@@H]4CC[C@@]3(C)[C@]1(C)CC2` needs its pKi filled in; supply it.
Response: 6.64

Prompt: Entry `CC(=O)[C@@H]1CC[C@]2(C(=O)NCCN)CC[C@]3(C)[C@H](CC[C@@H]4[C@@]5(C)CC[C@H](O)C(C)(C)[C@@H]5CC[C@]43C)[C@@H]12` needs its pKi filled in; supply it.
Response: 5.08

Prompt: Entry `CC(=O)O[C@H]1CC[C@]2(C)[C@H]3CC[C@@H]4[C@H]5[C@H](C(C)=O)CC[C@]5(C(=O)OCc5ccccc5)CC[C@@]4(C)[C@]3(C)CC[C@H]2C1(C)C` needs its pKi filled in; supply it.
Response: 4.48

Prompt: Entry `CC(=O)O[C@H]1CC[C@]2(C)[C@H]3CC[C@@H]4[C@H]5[C@H]([C@H](C)N)CC[C@]5(C(=O)OCc5ccccc5)CC[C@@]4(C)[C@]3(C)CC[C@H]2C1(C)C` needs its pKi filled in; supply it.
Response: 6.42

Prompt: Entry `CC(=O)O[C@H]1CC[C@]2(C)[C@H]3CC[C@@H]4[C@H]5[C@H]([C@@H](C)N)CC[C@]5(C(=O)O)CC[C@@]4(C)[C@]3(C)CC[C@H]2C1(C)C` needs its pKi filled in; supply it.
Response: 7.00

Prompt: Entry `C[C@@H](N)[C@@H]1CC[C@]2(CO)CC[C@]3(C)[C@H](CC[C@@H]4[C@@]5(C)CC[C@H](O)C(C)(C)[C@@H]5CC[C@]43C)[C@@H]12` needs its pKi filled in; supply it.
Response: 6.85

====

Measured Ki accompanies every entry in the list below.
Target: Acetylcholinesterase (Electrophorus electricus, UniProt O42275)
Sequence (O42275 whole entry): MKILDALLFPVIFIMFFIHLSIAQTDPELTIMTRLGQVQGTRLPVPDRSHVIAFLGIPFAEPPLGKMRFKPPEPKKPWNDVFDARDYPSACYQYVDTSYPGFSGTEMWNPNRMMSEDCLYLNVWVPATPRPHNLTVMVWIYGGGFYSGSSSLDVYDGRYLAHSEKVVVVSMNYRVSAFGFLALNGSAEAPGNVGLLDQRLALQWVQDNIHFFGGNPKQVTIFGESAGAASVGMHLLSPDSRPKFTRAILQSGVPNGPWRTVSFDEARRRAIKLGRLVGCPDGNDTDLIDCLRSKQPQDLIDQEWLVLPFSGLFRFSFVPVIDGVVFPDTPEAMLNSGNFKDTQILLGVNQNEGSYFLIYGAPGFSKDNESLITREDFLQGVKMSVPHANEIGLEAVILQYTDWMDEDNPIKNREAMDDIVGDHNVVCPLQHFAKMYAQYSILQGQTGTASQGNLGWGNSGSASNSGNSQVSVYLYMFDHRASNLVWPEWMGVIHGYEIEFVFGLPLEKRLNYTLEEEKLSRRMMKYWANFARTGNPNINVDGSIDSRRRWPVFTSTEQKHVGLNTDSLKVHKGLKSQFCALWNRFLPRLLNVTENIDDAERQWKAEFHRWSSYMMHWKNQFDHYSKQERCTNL
Experiment: Competitive inhibition of electric eel AChE using acetylthiocholine iodide as substrate preincubated for 20 mins followed by substrate addition measured every 1 min for 30 mins by Dixon plot method
Reply numerically in µM, unit not repeated.

INSERT INTO measurements (smi, recorded_endpoint, reported_result) VALUES
  ('CC(=O)O[C@H]1CC[C@]2(C)[C@H]3CC[C@@H]4[C@H]5[C@H](C(C)=O)CC[C@]5(C(N)=O)CC[C@@]4(C)[C@]3(C)CC[C@H]2C1(C)C', 'Ki', 8.16),
  ('C[C@@H](N)[C@@H]1CC[C@]2(C(=O)OCc3ccccc3)CC[C@]3(C)[C@H](CC[C@@H]4[C@@]5(C)CC[C@H](O)C(C)(C)[C@@H]5CC[C@]43C)[C@@H]12', 'Ki', 11);

Now turn to the next compound.
Prompt: Entry `CC(=O)O[C@H]1CC[C@]2(C)[C@H]3CC[C@@H]4[C@H]5[C@H](C(C)=O)CC[C@]5(C(=O)O)CC[C@@]4(C)[C@]3(C)CC[C@H]2C1(C)C` needs its Ki filled in; supply it.
Response: 9
